- Tested On: autotaxin (Homo sapiens)
- Construct: purchased Cayman 10803
- Protocol Details: Autotaxin inhibitor screening assay (choline release from LPC)
- Assay type: biochemical
- Details: inhibition of autotaxin enzyme activity at 1 μM compound; 100 μM 14:0 LPC; read-out: Inhibition

>  <Compound>
CN(C(=O)OCc1cc(Cl)cc(Cl)c1)C1CCc2ccc(C3=CCN(CC(=O)N4CCN(S(C)(=O)=O)CC4)CC3)cc21 (centres unmarked) [Compound 17]

>  <inhibition at 1 µM>
50 to 80%

$$$$
>  <Compound>
CN(C(=O)OCc1cc(C(F)(F)F)cc(C(F)(F)F)c1)C1CCc2ccc(C3=CCN(C(=O)CN4C(=O)CSC4=S)CC3)cc21 (centres unmarked) [Compound 95]

>  <inhibition at 1 µM>
> 80%

$$$$
>  <Compound>
CN(C(=O)OCc1cc(Cl)cc(Cl)c1)c1coc2ccc(C3=CCN(C(=O)CN4C(=O)CSC4=S)CC3)cc12 [Compound 69]

>  <inhibition at 1 µM>
> 80%

$$$$
>  <Compound>
CN(C(=O)OCc1cc(Cl)cc(Cl)c1)C1CCc2ccc(N3CCN(C(=O)CN4C(=O)CSC4=S)CC3)cc21 (centres unmarked) [Compound 36]

>  <inhibition at 1 µM>
> 80%

$$$$
>  <Compound>
CN(C(=O)OCc1cc(Cl)cc(Cl)c1)C1CCc2ccc(C3=CCN(C(=O)CN4CC(O)C4)CC3)cc21 (centres unmarked) [Compound 24]

>  <inhibition at 1 µM>
< 50%

$$$$
>  <Compound>
CN(c1nc(-c2ccc(F)cc2)c(C#N)s1)C1CCCc2ccc(N3CCN(CC(=O)N4CC(O)C4)CC3)cc21 (centres unmarked) [Compound 53]

>  <inhibition at 1 µM>
< 50%

$$$$
>  <Compound>
CN(C(=O)OCc1cc(Cl)cc(Cl)c1)C1CCc2ccc(N3CCN(CC(=O)N4CC(O)C4)CC3)cc21 (centres unmarked) [Compound 33]

>  <inhibition at 1 µM>
50 to 80%

$$$$
>  <Compound>
CN(c1nc(-c2ccc(Cl)cc2)c(C#N)s1)C1CCc2ccc(C3=CCN(CC(=O)N4CC(O)C4)CC3)cc21 (centres unmarked) [Compound 58]

>  <inhibition at 1 µM>
< 50%

$$$$
>  <Compound>
CN(C(=O)OCc1cc(Cl)cc(Cl)c1)C1CCc2ccc(C3=CCN(C(=O)C(=O)N4CCOCC4)CC3)cc21 (centres unmarked) [Compound 23]

>  <inhibition at 1 µM>
50 to 80%

$$$$
>  <Compound>
Cc1c(N(C)C(=O)OCc2cc(C(F)(F)F)cc(C(F)(F)F)c2)c2cc(C3=CCN(C(=O)CN4C(=O)CSC4=S)CC3)ccc2n1C [Compound 109]

>  <inhibition at 1 µM>
50 to 80%

$$$$
>  <Compound>
CC1Cc2ccc(C3=CCN(C(=O)CN4C(=O)CSC4=S)CC3)cc2C1N(C)C(=O)OCc1cc(Cl)cc(Cl)c1 (centres unmarked) [Compound 117]

>  <inhibition at 1 µM>
> 80%

$$$$
